Overview of reported Heart frequency Hrs. (duration of activity) across a group of compounds:
# System: heart frequency
# ASSAY NAME: Heart frequency (tachycardia) in conscious sheep dogs
# Assay type: in vivo
# SETTINGS: 10 mg/kg, oral
# Method: The positive inotropic activity was measured after the oral administration of the test substances to conscious sheep dogs. […] By differentiation of the ascending side of the left ventricular pressure (LVP), there is calculated the maximum pressure increase rate (dLVP/dtmax) which represents the contractility parameter. Simultaneously, the heart frequency is recorded via a cardiotachograph. […]
Respond with the bare value in h.

Some compounds with recorded Heart frequency Hrs. (duration of activity):
1. Cl.O=C1CN2C(=N1)NCc1cc(Cl)ccc12	3
2. COc1ccc2c(c1)CNC1=NC(=O)CN12.Cl	6.5
3. Cl.O=C1CN2C(=N1)NCc1c(Cl)cccc12	6
4. Cc1c(Cl)ccc2c1CNC1=NC(=O)CN12.Cl	6
5. COc1ccc2c(c1Cl)CNC1=NC(=O)CN12.Cl	7

I am curious: what Heart frequency Hrs. (duration of activity) value has been reported for "Cc1c(Br)ccc2c1CNC1=NC(=O)CN12.Cl" ? 8

I am curious: what Heart frequency Hrs. (duration of activity) value has been reported for "Cc1ccc2c(c1C)CNC1=NC(=O)CN12.Cl" ? 6

---

# System: heart frequency
# ASSAY NAME: Heart frequency (tachycardia) in conscious sheep dogs
# Format: in vivo
# SETTINGS: 10 mg/kg, oral
# Protocol: The positive inotropic activity was measured after the oral administration of the test substances to conscious sheep dogs. […] By differentiation of the ascending side of the left ventricular pressure (LVP), there is calculated the maximum pressure increase rate (dLVP/dtmax) which represents the contractility parameter. Simultaneously, the heart frequency is recorded via a cardiotachograph. […]
PARAMETER MEASURED: Heart frequency Δ% (percentage variation)

1) Cl.O=C1CN2C(=N1)NCc1c(Cl)cccc12	+77%
2) Cc1c(Br)ccc2c1CNC1=NC(=O)CN12.Cl	+59%
3) Cc1c(Cl)ccc2c1CNC1=NC(=O)CN12.Cl	+31%
4) COc1ccc2c(c1Cl)CNC1=NC(=O)CN12.Cl	+45%
5) Cl.O=C1CN2C(=N1)NCc1cc(Cl)ccc12	+13%

I am curious: what Heart frequency Δ% (percentage variation) value has been reported for "COc1ccc2c(c1)CNC1=NC(=O)CN12.Cl" ? +50%

I am curious: what Heart frequency Δ% (percentage variation) value has been reported for "Cc1ccc2c(c1C)CNC1=NC(=O)CN12.Cl" ? +3%

---

Overview of reported change in vivo at 3 mg/kg across a group of compounds:
# Test system: left ventricular pressure (LVP)
# ASSAY NAME: Positive inotropic activity (dLVP/dtmax) in conscious sheep dogs
# Assay type: in vivo
# SETTINGS: Canis lupus familiaris, 3 mg/kg, oral, read-out: Inotropy Δ% (percentage variation of dLVP/dtmax)
Respond with the bare value in %.

Some compounds with recorded change in vivo at 3 mg/kg:
1. Cc1cccc2c1N1CC(=O)N=C1NC2.Cl [hydrochloride]	18
2. CC1C(=O)N=C2NCc3c(ccc(Cl)c3Cl)N21.Cl (centres unmarked) [hydrochloride]	48
3. COc1ccc2c(c1Cl)CNC1=NC(=O)CN12.Cl [hydrochloride]	32

# evaluate next
I am curious: what change in vivo at 3 mg/kg value has been reported for Cc1c(Br)ccc2c1CNC1=NC(=O)CN12.Cl [hydrochloride] ? 16
